# credit: paper PMC12431657

# Test system: HCoV-OC43
# Design: species or system RD; HTS, protection from HCoV-OC43 induced cell death, luminescent cell viability (CellCounting-Lite 2.0), inhibition rate
# reported-conditions: 24 h post infection, 1 h compound pre-incubation; 10 µM; inhibitor
Where a name gives a salt, the structure may show the parent alone. About 60 (2%) of roughly 3,300 compounds showed an effect of 50% or more. The entries come from a sample that favours strong results as a whole.
quantity: OC43 Inhibition rate (%)

- compound: "Oc1ccc2[nH]ccc2c1 [5-Hydroxyindole]"
  target-entity: "HCoV-OC43"
  numeric-readout: 1.1
- compound: "CC(=O)O[C@@H]1CC[C@@]2(C)[C@@H](CC[C@]3(C)[C@@H]2CC=C2[C@@H]4[C@@H](C)[C@H](C)CC[C@]4(C)CC[C@]23C)[C@@]1(C)C(=O)O [3-Acetyl-beta-boswellic acid]"
  target-entity: "HCoV-OC43"
  numeric-readout: 66.7
- compound: "C[C@@H]1O[C@@H](O[C@H]2[C@H](O[C@H]3CC[C@@]4(C)[C@@H](CC[C@]5(C)[C@@H]4CC=C4[C@@H]6CC(C)(C)CC[C@]6(C(=O)O[C@@H]6O[C@H](CO[C@@H]7O[C@H](CO)[C@@H](O)[C@H](O)[C@H]7O)[C@@H](O)[C@H](O)[C@H]6O)CC[C@]45C)[C@]3(C)CO)OC[C@H](O)[C@@H]2O)[C@H](O)[C@H](O[C@@H]2O[C@H](CO)[C@@H](O)[C@H](O)[C@H]2O)[C@H]1O [Macranthoidin A]"
  target-entity: "HCoV-OC43"
  numeric-readout: -0.3
- compound: "C[C@@H]1O[C@@H](O[C@H]2[C@H](OC(=O)[C@]34CCC(C)(C)C[C@H]3C3=CC[C@@H]5[C@@]6(C)C[C@H](O)[C@@H]7O[C@@H]8O[C@H](CO)[C@@H](O)[C@H](O)[C@H]8O[C@@H]8OC[C@H](O)[C@H](O)[C@H]8OC(=O)C[C@@](C)(O)CC(=O)OC[C@@]7(C)[C@@H]6CC[C@@]5(C)[C@]3(C)CC4)OC[C@H](O)[C@@H]2O)[C@H](O)[C@H](O[C@@H]2OC[C@@H](O)[C@H](O)[C@H]2O)[C@H]1O [Tubeimoside I]"
  target-entity: "HCoV-OC43"
  numeric-readout: 57.2
- compound: "CCC(O)C(=O)O (stereo not drawn) [Sodium 2-hydroxybutanoate]"
  target-entity: "HCoV-OC43"
  numeric-readout: -6
- compound: "NCC(O)c1ccccc1 (stereo not drawn) [2-Amino-1-phenylethanol]"
  target-entity: "HCoV-OC43"
  numeric-readout: 0
- compound: "COC(=O)C1=C(O)c2ccccc2C(=O)[C@]1(CC=C(C)C)C1=CC(=O)c2ccccc2C1=O [Rubipodanone A]"
  target-entity: "HCoV-OC43"
  numeric-readout: 58.8
- compound: "COc1cc(O)c(CC=C(C)C)c2c1C(=O)C[C@@H](c1ccc(O)cc1)O2 [(2S)-Isoxanthohumol]"
  target-entity: "HCoV-OC43"
  numeric-readout: 48.2
- compound: "O=C1C[C@@H](c2ccc(O[C@@H]3O[C@H](CO)[C@@H](O)[C@H](O)[C@H]3O)cc2)Oc2cc(O[C@@H]3OC[C@](O)(CO)[C@H]3O)ccc21"
  target-entity: "HCoV-OC43"
  numeric-readout: 1.2
- compound: "O=S(=O)(O)CCO [Isethionic acid sodium salt]"
  target-entity: "HCoV-OC43"
  numeric-readout: -0.5
- compound: "CSSSC [Dimethyl trisulfide]"
  target-entity: "HCoV-OC43"
  numeric-readout: -0.3
- compound: "Cn1cncc1C[C@H](N)C(=O)O [3-Methyl-L-histidine]"
  target-entity: "HCoV-OC43"
  numeric-readout: -5.7
- compound: "O=C1C[C@@H](c2ccc(O)cc2)Oc2cc(O)ccc21 [Liquiritigenin]"
  target-entity: "HCoV-OC43"
  numeric-readout: 0.2
- compound: "O=C(O)c1ccc(O)cc1 [4-Hydroxybenzoic acid]"
  target-entity: "HCoV-OC43"
  numeric-readout: 0.1
- compound: "O=C1C[C@@H](c2ccc(O)c(O)c2)Oc2c1ccc(O[C@@H]1O[C@H](CO)[C@@H](O)[C@H](O)[C@H]1O)c2O [Flavanomarein]"
  target-entity: "HCoV-OC43"
  numeric-readout: -5.7
- compound: "CC(C)=CCC12Oc3cc(O)ccc3C1(O)Oc1cc(O)c([C@H]3C=C(C)C[C@@H](c4ccc(O)cc4O)[C@@H]3C(=O)c3ccc(O)cc3O)c(O)c1C2=O (stereo partly drawn) [Sanggenon D]"
  target-entity: "HCoV-OC43"
  numeric-readout: 42.1
- compound: "CC(C)(CC(=O)O)CC(=O)O [3,3-Dimethylglutaric acid]"
  target-entity: "HCoV-OC43"
  numeric-readout: -0.3
- compound: "CC(C)=CCC1C(=O)C(C(=O)CC(C)C)=C(O)C(O)(CC=C(C)C)C1=O (stereo not drawn) [Humulone]"
  target-entity: "HCoV-OC43"
  numeric-readout: -1
- compound: "Cc1ccc(O)c(O)c1 [4-Methylcatechol]"
  target-entity: "HCoV-OC43"
  numeric-readout: -0.9
- compound: "C=C1C(=O)[C@]23[C@H](O)[C@H]1CC[C@H]2[C@@]12CO[C@]3(O)[C@@H](O)[C@@H]1C(C)(C)CC[C@@H]2O [Oridonin]"
  target-entity: "HCoV-OC43"
  numeric-readout: 17.2
- compound: "COc1ccc2c(c1OC)CN(C)c1c-2ccc2cc3c(cc12)OCO3 [Dihydrochelerythrine]"
  target-entity: "HCoV-OC43"
  numeric-readout: 1.4
- compound: "O=C1NCN(c2ccccc2)C12CCN(CCCOc1ccc(F)cc1)CC2 [Spiramide]"
  target-entity: "HCoV-OC43"
  numeric-readout: 69.6
- compound: "CC(C)=CCc1cc2c(cc1O)O[C@H](c1ccc(O)cc1)CC2=O [Bavachin]"
  target-entity: "HCoV-OC43"
  numeric-readout: 66.9
- compound: "CCCCCCCCCCCCCCCCCCCCC [Heneicosane]"
  target-entity: "HCoV-OC43"
  numeric-readout: -0.3
- compound: "COC[C@@H](Cc1ccc(OC)c(OC)c1)[C@@H](COC)Cc1ccc(OC)c(OC)c1 [Phyllanthin]"
  target-entity: "HCoV-OC43"
  numeric-readout: 0.2
- compound: "CC[C@@H](C)O [(R)-(-)-2-Butanol]"
  target-entity: "HCoV-OC43"
  numeric-readout: 0.1
- compound: "Oc1ccc(O)c(O)c1 [1,2,4-Trihydroxybenzene]"
  target-entity: "HCoV-OC43"
  numeric-readout: -0.2
- compound: "C=C1C(=O)[C@@]23[C@H](O)C[C@@H]4C(C)(C)CC[C@H](O)[C@@]4(CO)[C@@H]2CC[C@@H]1[C@H]3O [Kamebakaurin]"
  target-entity: "HCoV-OC43"
  numeric-readout: -2.9
- compound: "CC(C)=CCC1=CC(=O)c2ccccc2C1=O [Deoxylapachol]"
  target-entity: "HCoV-OC43"
  numeric-readout: 3.8
- compound: "COc1cc2c(cc1CC=C(C)C)C(=O)C[C@@H](c1ccc(O)cc1)O2 [Bavachinin]"
  target-entity: "HCoV-OC43"
  numeric-readout: 20.3
